test.target: T1, Mouse Ang-2FD-hFc (mouse (Mus musculus))
T1 construct: Order of the pieces follows the name; also called Dimeric Mouse Ang-2FD
assay.protocol: ELISA, 16.67 nM antibody + 8 nM mouse Ang-2FD-hFc, on coated hTie-2-mFc (competitor)
// Percent Blocking of Ang-2FD Binding to Tie-2 lookup, one value per entry
Report field: quantity (unit follows the number).

Reference set (2 entries):
H1H724N (antibody, V domains shown) VH: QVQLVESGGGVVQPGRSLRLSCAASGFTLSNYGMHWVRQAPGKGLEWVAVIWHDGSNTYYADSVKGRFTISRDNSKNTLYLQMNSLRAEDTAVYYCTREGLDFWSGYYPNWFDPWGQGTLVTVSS VL: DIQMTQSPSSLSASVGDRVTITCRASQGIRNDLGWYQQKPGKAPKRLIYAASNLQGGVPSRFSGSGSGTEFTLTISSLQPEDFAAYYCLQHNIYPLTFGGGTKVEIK = 97.1%
H1H704P (antibody, V domains shown, Fully human antibody, human IgG1) VH: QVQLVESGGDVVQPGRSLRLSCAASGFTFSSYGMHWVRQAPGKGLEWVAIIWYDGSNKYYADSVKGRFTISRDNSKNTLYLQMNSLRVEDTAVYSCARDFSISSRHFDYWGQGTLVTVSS VL: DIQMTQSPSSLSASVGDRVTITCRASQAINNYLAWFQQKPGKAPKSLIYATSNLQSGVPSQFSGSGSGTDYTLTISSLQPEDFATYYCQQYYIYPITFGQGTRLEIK = 41.8%

Proceed to the following item.
Task item: # input binder: H1H685P (antibody, V domains shown, Fully human antibody, human IgG1; also called mAb1) VH: EVQLVESGGGLVQPGGSLRLSCAASGFTFSSYDIHWVRQATGKGLEWVSAIGPAGDTYYPGSVKGRFTISRENAKNSLYLQMNSLRAGDTAVYYCARGLITFGGLIAPFDYWGQGTLVTVSS VL: EIVLTQSPGTLSLSPGERATLSCRASQSVSSTYLAWYQQKPGQAPRLLIYGASSRATGIPDRFSGSGSGTDFTLTISRLEPEDFAVYYCQHYDNSQTFGQGTKVEIK ; wanted: its Percent Blocking of Ang-2FD Binding to Tie-2
Reply: 97.1%
